Assignment: determine reported IC50 at 48 h for the given compounds.
assay: MTT cytotoxicity (growth inhibition) assay, HEK-293 (non-tumor); type: cell-based; conditions: human, HEK-293 embryonic kidney cells (non-tumor)

Item under review: COc1cc(-n2nncc2-c2ccc(Cl)cc2)cc(OC)c1OC . Reported IC50 at 48 h?
> 200 µM

Again, but for COc1cc(-n2nncc2-c2ccccc2Br)cc(OC)c1OC
> 200 µM

Again, but for COc1cc(-n2nncc2-c2ccc(O)c(O)c2)cc(OC)c1OC
> 200 µM

Again, but for COc1cc(-n2nncc2-c2ccc(C(F)(F)F)cc2)cc(OC)c1OC
> 200 µM

Again, but for COc1ccc(-c2cnnn2-c2cc(OC)c(OC)c(OC)c2)c(Br)c1
> 100 µM

Again, but for CCOc1ccc(-c2cnnn2-c2cc(OC)c(OC)c(OC)c2)cc1
19 µM

Again, but for COc1ccc(-c2cnnn2-c2cc(OC)c(OC)c(OC)c2)cc1OC
> 200 µM

----------
Assignment: determine reported IC50 at 48 h for the given compounds.
test: MTT cytotoxicity (growth inhibition) assay, HEK-293 (non-tumor); assay type: cell-based; settings: human, HEK-293 embryonic kidney cells (non-tumor)

Item under review: COc1cc(-n2nncc2-c2ccc(C)cc2)cc(OC)c1OC [3d] . Reported IC50 at 48 h?
> 200 µM

Again, but for COc1cc(-n2nncc2-c2ccc(F)cc2)cc(OC)c1OC [3f]
> 200 µM

Again, but for COc1cc(-n2nncc2-c2ccc(O)c(Br)c2)cc(OC)c1OC [3p]
> 200 µM

Again, but for COc1cc(-n2nncc2-c2ccccc2)cc(OC)c1OC [3a]
> 200 µM

Again, but for CCOc1ccc(-c2cnnn2-c2cc(OC)c(OC)c(OC)c2)cc1Br [3m]
> 200 µM

Again, but for COc1cc(-n2nncc2-c2ccccc2[N+](=O)[O-])cc(OC)c1OC [3c]
> 200 µM

Again, but for COc1cc(-n2nncc2-c2ccc(Br)cc2)cc(OC)c1OC [3h]
> 200 µM

Again, but for COc1ccc(Br)c(-c2cnnn2-c2cc(OC)c(OC)c(OC)c2)c1 [3l]
> 200 µM

Again, but for COc1ccc(-c2cnnn2-c2cc(OC)c(OC)c(OC)c2)cc1 [3i]
35 µM

Again, but for COc1ccc(-c2cnnn2-c2cc(OC)c(OC)c(OC)c2)cc1Cl [3n]
0.025 µM
